- Target: human leukocyte elastase (Homo sapiens, UniProt P08246)
- Sequence (P08246 30-267): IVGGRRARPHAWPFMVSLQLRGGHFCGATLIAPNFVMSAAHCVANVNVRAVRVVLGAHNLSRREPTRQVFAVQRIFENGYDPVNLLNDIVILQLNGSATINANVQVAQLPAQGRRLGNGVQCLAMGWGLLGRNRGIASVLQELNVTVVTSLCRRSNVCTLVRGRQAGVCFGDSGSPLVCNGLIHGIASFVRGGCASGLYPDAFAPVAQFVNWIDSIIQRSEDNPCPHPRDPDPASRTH
- Test: in vitro human leukocyte elastase inhibiting activity (fluorogenic substrate, method of JP-A-2-101017 with slight modification)
- Format: biochemical
- Study conditions: 50% inhibitory concentration; substrate methoxysuccinyl-Ala-Ala-Pro-Val-7-amido-4-methylcoumarin; 0.2 M Tris-hydrochloride buffer (0.02 M CaCl2, 0.005% Triton X-100), pH 7.2; compound and enzyme incubated at 25°C for 20 minutes; read-out: IC50
pIC50: −log10 of the molar value.
Endpoint label: pIC50

Ask: Field request: pIC50 | item: CC1(C(=O)Nc2ccc(C(=O)Oc3cc(Cl)cc(Cl)c3)cc2)CC1 [Compound 1]
Reply: 7.43

Ask: Field request: pIC50 | item: CCS(=O)(=O)Oc1cc(Cl)cc(OC(=O)c2ccc(NC(=O)C(C)C)cc2)c1 [Compound 83]
Reply: 7.60

(P) CC(C)C(=O)Nc1ccc(C(=O)Oc2cc(Cl)cc(OC(=O)C=Cc3ccccc3)c2)cc1 [Compound 80]
(Q) O=C(Nc1ccc(C(=O)Oc2cc(Cl)cc(Cl)c2)cc1)OCCO [Compound 35]
(R) O=C(Oc1cc(Cl)cc(Cl)c1)c1ccc(NC(=O)C2CCCCC2)cc1 [Compound 18]
(S) CC(C)C(=O)Nc1ccc(C(=O)Oc2cc(Cl)ccc2C#N)cc1 [Compound 62]
Ask: Order the 4 compounds from highest to lowest pIC50. Arrange the labels as the request states and list them.
Reply: S, R, P, Q
(S: 8.89, R: 8.00, P: 7.62, Q: 7.42)

(I) COc1ccc(COC(=O)c2ccc([N+](=O)[O-])c(OC(=O)c3ccc(NC(=O)C(C)C)cc3)c2)cc1 [Compound 56]
(II) CC(C)C(=O)Nc1ccc(C(=O)Oc2cc(Cl)cc(OC(=O)C3CCCCC3)c2)cc1 [Compound 79]
Ask: Endpoint returns whichever of I and II has the numerically higher pIC50. Provide the label of your selected option as the answer.
Reply: I

====

- Target: human leukocyte elastase (Homo sapiens, UniProt P08246)
- Test: in vitro human leukocyte elastase inhibiting activity (fluorogenic substrate, method of JP-A-2-101017 with slight modification)
- Type: biochemical
- Study conditions: 50% inhibitory concentration; substrate methoxysuccinyl-Ala-Ala-Pro-Val-7-amido-4-methylcoumarin; 0.2 M Tris-hydrochloride buffer (0.02 M CaCl2, 0.005% Triton X-100), pH 7.2; compound and enzyme incubated at 25°C for 20 minutes; read-out: IC50
pIC50: −log10 of the molar value.
Endpoint label: pIC50

Sample answers from the record:
Ask: Field request: pIC50 | item: CC(C)(C)C(=O)Nc1ccc(C(=O)Oc2cc(C=O)ccc2[N+](=O)[O-])cc1 [Compound 60]
Reply: 8.38

Ask: Field request: pIC50 | item: CN(C)C(=O)Nc1ccc(C(=O)Oc2cc(Cl)cc(Cl)c2)cc1 [Compound 32]
Reply: 8.23

(a) CC(C)C(=O)Nc1ccc(C(=O)Oc2cc(Cl)cc(OC(=O)C3(C)CC3)c2)cc1 [Compound 78]
(b) CC(=O)Oc1cc(C#N)cc(OC(=O)c2ccc(NC(=O)C(C)C)cc2)c1 [Compound 93]
Ask: Record comparison, field pIC50: mark the lower of a and b . Provide the label of your selected option as the answer.
Reply: b

====

- Target: human leukocyte elastase (Homo sapiens)
- Test: in vitro human leukocyte elastase inhibiting activity (fluorogenic substrate, method of JP-A-2-101017 with slight modification)
- Type: biochemical
- Study conditions: 50% inhibitory concentration; substrate methoxysuccinyl-Ala-Ala-Pro-Val-7-amido-4-methylcoumarin; 0.2 M Tris-hydrochloride buffer (0.02 M CaCl2, 0.005% Triton X-100), pH 7.2; compound and enzyme incubated at 25°C for 20 minutes; read-out: IC50
Endpoint label: IC50 (nM)

Sample answers from the record:
Ask: Field request: IC50 | item: CC(C(=O)Nc1ccc(C(=O)Oc2cc(Cl)cc(Cl)c2)cc1)c1ccccc1 (stereo not drawn)
Reply: 12

Ask: Field request: IC50 | item: `CC(C)(C(=O)O)C(=O)Nc1ccc(C(=O)Oc2cc(Cl)cc(Cl)c2)cc1`
Reply: 3.4

Ask: Field request: IC50 | item: `O=C(Cc1ccccc1)Nc1ccc(C(=O)Oc2cc(Cl)cc(Cl)c2)cc1`
Reply: 5.3

(A) CC(C)C(=O)Nc1ccc(C(=O)Oc2cc(Cl)cc(OS(=O)(=O)Cc3ccccc3)c2)cc1
(B) CC(C)C(=O)Nc1ccc(C(=O)Oc2cc(F)ccc2F)cc1
(C) CC(C)C(=O)Nc1ccc(C(=O)Oc2cc(C(F)(F)F)cc(C(F)(F)F)c2)cc1
(D) CC(C)C(=O)Nc1ccc(C(=O)Oc2cc(C=O)ccc2[N+](=O)[O-])cc1
(E) O=C(Oc1cc(Cl)cc(Cl)c1)c1ccc(NC(=O)C2CCC2)cc1
Ask: Please list these in order of increasing IC50. Thank you! Arrange the labels as the request states and list them.
Reply: D, E, A, B, C
(D: 3.4 nM, E: 9.2 nM, A: 21 nM, B: 110 nM, C: 220 nM)

(A) CC(C)CC(=O)Nc1ccc(C(=O)Oc2cc(Cl)cc(Cl)c2)cc1
(B) O=C(C=Cc1ccccc1)Nc1ccc(C(=O)Oc2cc(Cl)cc(Cl)c2)cc1
(C) CNC(=O)Nc1ccc(C(=O)Oc2cc(Cl)cc(Cl)c2)cc1
Ask: Please list these in order of increasing IC50. Thank you! Arrange the labels as the request states and list them.
Reply: C, A, B

(1) O=C(Oc1cc(Cl)cc(Cl)c1)c1ccc(NC(=O)C(F)(F)C(F)(F)F)cc1
(2) N=C(N)Nc1ccc(C(=O)Oc2cc(Cl)cc(Cl)c2)cc1 [Compound 95, reference compound]
(3) CCCNC(=O)Nc1ccc(C(=O)Oc2cc(Cl)cc(Cl)c2)cc1
Ask: Please list these in order of increasing IC50. Thank you! Arrange the labels as the request states and list them.
Reply: 1, 3, 2
(1: 10 nM, 3: 16 nM, 2: 570 nM)

(a) O=C(O)CCC(=O)Nc1ccc(C(=O)Oc2cc(Cl)cc(Cl)c2)cc1
(b) CC(C)C(=O)Nc1ccc(C(=O)Oc2cc(Cl)cc(Cl)c2)cc1
(c) CC(C)C(=O)Nc1ccc(C(=O)Oc2cc(Cl)cc(OC(=O)C(C)C)c2)cc1
Ask: Please list these in order of increasing IC50. Thank you! Arrange the labels as the request states and list them.
Reply: c, b, a
(c: 1.9 nM, b: 4.1 nM, a: 23 nM)
